Origin of the recorded values: the supplement of paper PMC11060735

# System: mouse p16Ink4a+/- lung fibroblasts (INKBRITE, bleomycin-injured)
# TEST_SUMMARY: percentage of GFP+ (p16Ink4a+) fibroblasts among all cells in well; higher = less depletion of p16Ink4a+ cells, active = 20 or less
# ASSAY_CONDITIONS: 1 µM; 3 days
About 50 (3%) of roughly 1,800 compounds showed activity. The sample holds actives, similar compounds and a random draw of the others, so the mix is not that of the screen.
OBSERVABLE: percentage of GFP+ (%)
Lab book: enter the figure in %, no units written.

What measured percentage of GFP+ is associated with CCn1cc(C(=O)O)c(=O)c2cc(F)c(N3CCNC(C)C3)c(F)c21 (stereo not given) [Lomefloxacin] on mouse p16Ink4a+/- lung fibroblasts (INKBRITE, bleomycin-injured)?
44

Input COc1ccc(-c2ccc3c(N4CCOCC4)nc(N4C[C@@H](C)O[C@@H](C)C4)nc3n2)cc1CO
23.7

Input CN(Cc1ccc(C(C)(C)C)cc1)Cc1cccc2ccccc12 [Butenafine]
51.2

Input Cc1cc(C)c(CNC(=O)c2cc(-c3ccc(CN4CCOCC4)cc3)cc3c2cnn3C2CCCC2)c(O)n1
49.7

Input CCN(c1cc(-c2ccc(CN3CCOCC3)cc2)cc(C(=O)NCc2c(C)cc(C)nc2O)c1C)C1CCOCC1
54.5

----------
# Tested on: mouse p16Ink4a+/- lung fibroblasts (INKBRITE, bleomycin-injured)
# TEST_SUMMARY: percentage of GFP+ (p16Ink4a+) fibroblasts among all cells in well; higher = less depletion of p16Ink4a+ cells, active = 20 or less
# ASSAY_CONDITIONS: 1 µM; 3 days
In all, about 1,800 compounds went through this assay and about 50 (3%) showed activity. The entries come from a sample that favours actives as a whole.
OBSERVABLE: percentage of GFP+ (%)
Lab book: enter the figure in %, no units written.

percentage of GFP+ lookup needed for Cn1c(=O)n(-c2ccc(C(C)(C)C#N)cc2)c2c3cc(-c4cnc5ccccc5c4)ccc3ncc21 [Dactolisib] , thanks.
36

Input COc1ccc(-c2ccc3ncc4c(c3c2)n(-c2ccc(N3CCNCC3)c(C(F)(F)F)c2)c(=O)n4C)cn1
10.6

Input CC(=O)C1=C(O)C=C2Oc3c(C(C)=O)c(O)c(C)c(O)c3[C@]2(C)C1=O [(+)-Usniacin]
45.5

Input CC1(C)CC(=O)c2c(C(F)(F)F)nn(-c3ccc(C(N)=O)c(N[C@H]4CC[C@H](O)CC4)c3)c2C1
6.92

Input C[C@H](NC(=O)/C(C#N)=C/c1cccc(Br)n1)c1ccccc1
43

Input COC(=O)c1ccc2c(/C(=N/c3ccc(N(C)C(=O)CN4CCN(C)CC4)cc3)c3ccccc3)c(O)[nH]c2c1 [Nintedanib]
25.4

Input Cn1c(=O)c2nc[nH]c2n(C)c1=O [Aminophylline, Theophylline]
44.7

Input CCC(=O)N1CCN(c2ccc(-n3c(=O)ccc4cnc5ccc(-c6cnc7ccccc7c6)cc5c43)cc2C(F)(F)F)CC1 [Torin 1]
46

Input Cc1nc(-c2ccc(OCC(C)C)c(C#N)c2)sc1C(=O)O [Febuxostat]
42.1

Input CC(C)(C#N)c1cc(Cn2cncn2)cc(C(C)(C)C#N)c1 [Anastrozole]
45.5

Input CCC[C@H](NC(=O)/C(C#N)=C/c1cccc(Br)n1)c1ccccc1 [Degrasyn]
13.1

Input CC/C(=C(\c1ccccc1)c1ccc(OCCN(C)C)cc1)c1ccccc1 [Tamoxifen]
34.9

Input CCN(CC)CCCC(C)Nc1c2ccc(Cl)cc2nc2ccc(OC)cc12 (configuration not stated) [Quinacrine]
46.6

Input CNC(=O)c1cc(Oc2ccc(NC(=O)Nc3cc(C(C)(C)C)nn3-c3ccc4ncccc4c3)c(F)c2)ccn1 [Rebastinib]
39.9

Input CCOC(=O)[C@H](CCc1ccccc1)N[C@H]1CS[C@H](c2cccs2)CN(CC(=O)O)C1=O [Temocapril]
45.2

Input COc1ccc2cccc(CCNC(C)=O)c2c1 [Agomelatine]
39.1

Input CC1(C)CC(=O)c2c(C(F)(F)F)nn(-c3ccc(C(N)=O)c(N[C@H]4CC[C@H](OC(=O)CN)CC4)c3)c2C1
6.23
